B1: GNB5 (parent)
chain: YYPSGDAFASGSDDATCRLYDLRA

# Variants of: B1
# ASSAY SUMMARY: protein stability index of a GFP-peptide fusion (GPS, HEK-293T) (PSI 1-6); higher = more stable;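 further: lentivirally expressed fusions sorted by FACS into six bins by GFP to DsRed ratio, PSI derived from sequencing read proportions per bin multiplied by bin number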
# CONDITION DESCRIPTION: c terminus: a fixed tail appended
# Lookup of reported protein stability index keyed by entry
Give your answer as a number; write no unit.

G11A ... 2.23
R23C ... 2.27
D14S ... 1.94
R18A ... 3.06

Now look at this entry.
Query A24L yields protein stability index of 2.14
